Kindly state Ratio OD(Variant)/OD(WT) for each of the entries shown.
molecular target: HRgpA-6H (Porphyromonas gingivalis) (UniProt P28784); assay: ELISA, FASEBA Fab on coated HRgpA-6H

Below, 2 binders whose answers are already recorded.
{"binder": "KB001 mouse Fab VL S26D (Fab, V domains shown) VH: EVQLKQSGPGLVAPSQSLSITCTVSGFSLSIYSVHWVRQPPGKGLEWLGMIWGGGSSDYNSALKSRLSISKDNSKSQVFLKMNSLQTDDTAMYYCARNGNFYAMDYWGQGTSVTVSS VL: QIVLTQSPAIMSASLGERVTMTCTADSSVSSSFLHWYQQKPGSSPQLWIYSTSNLASGVPARFSGSGSGTSYSLTISSMEAEDAATYYCHQYHHSPYIYTFGGGTKLEIK", "Ratio OD(Variant)/OD(WT)": 1.05}
{"binder": "KB001 mouse Fab VL Y97E (Fab, V domains shown) VH: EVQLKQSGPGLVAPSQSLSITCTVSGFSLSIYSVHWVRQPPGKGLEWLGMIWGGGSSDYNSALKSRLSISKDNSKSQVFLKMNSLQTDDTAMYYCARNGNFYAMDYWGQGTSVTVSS VL: QIVLTQSPAIMSASLGERVTMTCTASSSVSSSFLHWYQQKPGSSPQLWIYSTSNLASGVPARFSGSGSGTSYSLTISSMEAEDAATYYCHQYHHSPEIYTFGGGTKLEIK", "Ratio OD(Variant)/OD(WT)": 1}

Next up:
# lookup: Ratio OD(Variant)/OD(WT) of KB001 mouse Fab VL S57T (Fab, V domains shown) VH: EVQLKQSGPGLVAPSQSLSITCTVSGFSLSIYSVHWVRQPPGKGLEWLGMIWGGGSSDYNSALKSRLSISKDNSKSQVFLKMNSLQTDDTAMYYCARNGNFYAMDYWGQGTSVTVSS VL: QIVLTQSPAIMSASLGERVTMTCTASSSVSSSFLHWYQQKPGSSPQLWIYSTSNLATGVPARFSGSGSGTSYSLTISSMEAEDAATYYCHQYHHSPYIYTFGGGTKLEIK
1.03
